- Tested on: paw edema induced by exogenous PLA2 (snake, A. piscivorus piscivorus)
- Assay explanation: In vivo PLA2 murine paw edema assay
- Design: species or system mouse (male CD-1)
- Condition set: 10 mg/kg i.p., 30 min
Where a name gives a salt, the structure may show the parent alone.
Observable: % Change in Edema 30 min (%)
Answer in %, number only, no unit symbol.

Compound	% Change in Edema 30 min, %
COC(=O)Cc1cc(OCc2ccc3ccccc3n2)ccc1Nc1c(Cl)cccc1Cl [Example 1]	-37
O=C(O)Cc1cc(OCc2ccc3ccc(Cl)cc3n2)ccc1Nc1c(Cl)cccc1Cl [Example 6, acetic acid]	-24
COC(=O)Cc1cc(OCc2nc3ccccc3n2C)ccc1Nc1c(Cl)cccc1Cl [Example 10]	-36
CONC(=O)Cc1cc(OCc2ccc3ccccc3n2)ccc1Nc1c(Cl)cccc1Cl [Example 12]	-45

Moving on to another compound below.
**Query** Report % Change in Edema 30 min for O=C(O)Cc1cc(OCc2ccc3ccccc3n2)ccc1Nc1c(Cl)cccc1Cl [Example 3, acetic acid sodium salt] please.
**Result** -10
